- assay-explanation: qHTS assay for identifying genotoxic compounds that show differential cytotoxicity against isogenic chicken DT40 cell lines with known DNA damage response pathways - wild type cell line (AID 743012); note: nearly all actives have a fitted effect of over 60% in size
- experimental-context: DT40 wild type chicken cells viability, CellTiter-Glo, 40 h; series mostly up to 68.4 µM
Results filed as inconclusive are left out. Calls of active or inactive are those of the source. Calls come from the whole dose curve; as a rule, active = well fitted cell-killing curve with a large enough effect in the repeat runs; inconclusive = weak or mixed curves, or effect the other way; inactive = no such curve, though single readings can be large or run the other way.
Just give me one of these, please: 1.0 for active, 0.0 for inactive

Please review the following examples before continuing.
[
  {
    "compound": "Cc1c(N)cccc1N",
    "assigned-label": 0.0
  },
  {
    "compound": "OCc1ccccc1O",
    "assigned-label": 0.0
  },
  {
    "compound": "CC1=C(CC(=O)O)c2cc(F)ccc2/C1=C\\c1ccc(S(C)(=O)=O)cc1",
    "assigned-label": 0.0
  },
  {
    "compound": "CCCCCCCCCC/C=C/C#N",
    "assigned-label": 0.0
  },
  {
    "compound": "O=C(O)c1ccccc1Nc1cc(Cl)ccc1C(=O)O",
    "assigned-label": 0.0
  }
]

Assay result, entry CCCCC(=O)O[C@]1(C(=O)CO)[C@H](C)C[C@H]2[C@@H]3CCC4=CC(=O)C=C[C@]4(C)[C@@]3(F)[C@@H](O)C[C@@]21C — outcome?
1.0

Try this compound next: C=CC1CO1 (stereo not drawn)
0.0

Let us now turn to O=C1C=CC(=O)O1
0.0

* * *

- system: Cytochrome P450 1A2 (Homo sapiens) (UniProt P05177)
- Sequence (P05177 whole entry, looked up): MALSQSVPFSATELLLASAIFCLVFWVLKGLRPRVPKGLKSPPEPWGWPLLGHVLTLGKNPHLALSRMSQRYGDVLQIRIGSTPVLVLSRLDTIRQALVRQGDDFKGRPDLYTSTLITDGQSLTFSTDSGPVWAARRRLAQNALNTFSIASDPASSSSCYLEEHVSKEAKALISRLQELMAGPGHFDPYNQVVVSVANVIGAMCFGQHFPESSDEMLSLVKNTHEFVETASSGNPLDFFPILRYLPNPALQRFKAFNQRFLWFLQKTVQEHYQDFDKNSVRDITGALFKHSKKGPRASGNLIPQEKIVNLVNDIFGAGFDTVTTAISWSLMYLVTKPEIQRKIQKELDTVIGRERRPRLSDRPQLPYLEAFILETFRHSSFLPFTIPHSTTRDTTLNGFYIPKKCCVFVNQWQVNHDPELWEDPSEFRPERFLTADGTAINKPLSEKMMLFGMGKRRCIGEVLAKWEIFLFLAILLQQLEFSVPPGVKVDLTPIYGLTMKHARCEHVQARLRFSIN
- assay-explanation: Cytochrome P450 Family 1 Subfamily A Member 2 (CYP1A2) small molecule antagonists: luciferase reporter qHTS assay (AID 1671199); note: nearly all actives have a fitted effect of over 50% in size
- experimental-context: P450-Glo CYP1A2 enzyme, luciferin luminescence, 1 h; series mostly up to 53 µM
- From the text: National Center for Advancing Translational Sciences [NCATS] U.S. Environmental Protection Agency [EPA] National Institutes of Environmental Health Sciences [NIEHS] National Toxicology Program [NTP] U.S. Food and Drug Administration [FDA] Cytochrome P450 (CYP) enzymes are membrane-bound hemeproteins that play a key role in metabolism of drugs and xenobiotics. […] The luciferin products formed are detected with a luciferin detection reagent, and the amount of light produced is proportional to CYP activity. […]
Records with an inconclusive call do not appear. Calls of active or inactive are those of the source. Calls follow the shape of the dose curve; as a rule, active = well fitted inhibition curve with a large enough effect in the repeat runs; inconclusive = weak or mixed curves; inactive = no such curve, though single readings can be large or run the other way.
// one of 1.0 for active, 0.0 for inactive, no free text

[
  {
    "chem-smiles": "CC(C)=CCC[C@](C)(O)[C@@H]1CC=C(C)CC1",
    "assigned-label": 1.0
  },
  {
    "chem-smiles": "CC1(C)O[C@@H]2C[C@H]3[C@@H]4CCC5=CC(=O)CC[C@]5(C)[C@@]4(F)[C@@H](O)C[C@]3(C)[C@]2(C(=O)CCl)O1",
    "assigned-label": 0.0
  },
  {
    "chem-smiles": "Cc1c[nH]c(=S)[nH]c1=O",
    "assigned-label": 1.0
  },
  {
    "chem-smiles": "CC/C=C\\CCOC(=O)C(C)C",
    "assigned-label": 0.0
  }
]

For COc1ccc(Nc2ccc(OC)cc2)cc1 , which call appears in the assay record?
1.0

And for C=CCCCCCCCCO ?
1.0

// repeat for CN1CCN(c2c(F)cc3c(=O)c(C(=O)O)cn4c3c2SCC4)CC1 and report
0.0

* * *

- assay-explanation: qHTS assay to identify small molecule HDAC inhibitors (AID 1259364);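 note: wild-type HCT-116 cells with endogenous class I/II HDAC activity; nearly all actives have a fitted effect of over 45% in size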
- experimental-context: HCT-116 HDAC-Glo I/II luminescence, 2 h; series mostly up to 92.4 µM
Records with an inconclusive call do not appear. The source made the active and inactive calls. Calls come from the whole dose curve; as a rule, active = well fitted inhibition curve with a large enough effect in the repeat runs; inconclusive = weak or mixed curves; inactive = flat fitted curve, though single readings scatter.
Outcome (select one): active, inactive

Fill in: this test's call for O=C1CCCCCCCCCCC(=O)OCCO1 is ___
inactive

// repeat for CCCCc1ccc2nc(NC(=O)OC)[nH]c2c1 and report
active

Record: O=C(O)[C@@H](O)[C@H](O)[C@H](O)[C@@H](O)C(=O)O
inactive

How about CCCN(CCC)C(=O)C(CCC(=O)O)NC(=O)c1ccccc1 (centres undefined) ?
inactive

Try the compound COc1ccc(Nc2ccc(OC)cc2)cc1
active

* * *

- system: Nuclear receptor subfamily 1 group I member 2 (Homo sapiens) (UniProt O75469)
- assay-explanation: CYP3A4 induction through human pregnane X receptor (PXR) by small molecules, qHTS assay (AID 1346984); note: nearly all actives have a fitted effect of over 40% in size; for activation: % is set by controls: 0 for no effect and ±100 for the full control effect
- experimental-context: DPX-2 HepG2 PXR, CYP3A4-luciferin luminescence, 24 h; series mostly up to 46.1 µM
- Text: National Center for Advancing Translational Sciences [NCATS] NIH Chemical Genomics Center [NCGC] U.S. Environmental Protection Agency [EPA] National Institutes of Environmental Health Sciences [NIEHS] National Toxicology Program [NTP] The Pregnane X receptor (PXR), a ligand activated nuclear receptor plays a critical role in the regulation of genes involved in drug metabolism and transporters. Activation of PXR is responsible for unwanted adverse drug reactions. […]
Inconclusive results are not listed. The source made the active and inactive calls. Calls follow the shape of the dose curve; as a rule, active = well fitted activation curve with a large enough effect in the repeat runs; inconclusive = weak or mixed curves; inactive = no such curve, though single readings can be large or run the other way.
Permitted responses: active, inactive

[
  {
    "compound": "CCc1nnc(NS(=O)(=O)c2ccc(N)cc2)s1",
    "assigned-label": "inactive"
  },
  {
    "compound": "Cc1ccsc1C(=CCCN1CCC[C@@H](C(=O)O)C1)c1sccc1C",
    "assigned-label": "inactive"
  },
  {
    "compound": "CN1CCN(C2=Nc3ccccc3Oc3ccc(Cl)cc32)CC1",
    "assigned-label": "active"
  }
]

Returns: the outcome recorded for Oc1ccccc1C=NCc1ccccc1 in this assay.
active

Check CC(=O)N(CC(O)CN(C(C)=O)c1c(I)c(C(=O)NCC(O)CO)c(I)c(C(=O)NCC(O)CO)c1I)c1c(I)c(C(=O)NCC(O)CO)c(I)c(C(=O)NCC(O)CO)c1I (stereo not given) too.
inactive

Ok, now CCN[C@H]1CN(CCCOC)S(=O)(=O)c2sc(S(N)(=O)=O)cc21
inactive

Item: FC(F)(F)C(F)(F)C(F)(F)C(F)(F)C(F)(F)C(F)(F)C(F)(F)C(F)(F)Br
inactive

Then Cc1c(-c2ccccc2)oc2c(C(=O)OCCN3CCCCC3)cccc2c1=O ?
inactive

Try the compound CC(=O)Oc1cc(C(C)C)c(OCCN(C)C)cc1C
inactive

* * *

- assay-explanation: qHTS assay to identify small molecule antagonists of the constitutive androstane receptor (CAR) signaling pathway - cell viability counter screen (AID 1224837); note: % is set by controls: 0 for no effect and ±100 for the full control effect; nearly all actives have a fitted effect of over 45% in size
- experimental-context: HepG2-CYP2B6-hCAR viability, CellTiter-Fluor, 23 h, co-treated with 50 nM CITCO; series mostly up to 92.4 µM
Inconclusive results are not listed. Calls of active or inactive are those of the source. Calls follow the shape of the dose curve; as a rule, active = well fitted cell-killing curve with a large enough effect in the repeat runs; inconclusive = weak or mixed curves, or effect the other way; inactive = flat fitted curve, though single readings scatter.
reported-metric: activity change, negative = cytotoxicity

Example entries and their recorded answers appear below.
[
  {
    "compound": "CCc1cc(Cl)c(OC)c(C(=O)NC[C@@H]2CCCN2CC)c1O",
    "activity change, negative = cytotoxicity": "inactive"
  },
  {
    "compound": "OCCN(CCO)CCN(CCO)CCO",
    "activity change, negative = cytotoxicity": "inactive"
  },
  {
    "compound": "CC(C)c1ccccc1",
    "activity change, negative = cytotoxicity": "inactive"
  },
  {
    "compound": "O=C(O)c1ccccc1Nc1cc(Cl)ccc1C(=O)O",
    "activity change, negative = cytotoxicity": "-10.7% [at 19 µM] (inactive)"
  },
  {
    "compound": "NCCCN1CCN(CCCN)CC1",
    "activity change, negative = cytotoxicity": "inactive"
  },
  {
    "compound": "CC(=O)OC1C2(C)CCC(C2)C1(C)C (configuration not stated)",
    "activity change, negative = cytotoxicity": "inactive"
  }
]

What value of measured activity change, negative = cytotoxicity is listed for CCC(=O)c1ccc2c(c1)N(CCCN(C)C)c1ccccc1S2 ?
inactive

Same again, this time with CC(C)(CO)[C@@H](O)C(=O)NCCC(=O)O
inactive

Please answer likewise for O=C(CC(=O)C(F)(F)F)c1ccccc1
inactive

* * *

- assay-explanation: qHTS assay for small molecule disruptors of the mitochondrial membrane potential (AID 720635)
- experimental-context: HepG2 mitochondrial membrane potential, Mito-MPS dye ratio; series mostly up to 83.2 µM
- Excerpt: U.S. Tox21 Program National Center for Advancing Translational Sciences [NCATS] NIH Chemical Genomics Center [NCGC] U.S. Environmental Protection Agency [EPA] National Institutes of Environmental Health Sciences [NIEHS] National Toxicology Program [NTP] U.S. Food and Drug Administration [FDA] […] The dye accumulates in the mitochondria of healthy cells as aggregates, with red fluorescence. […]
Records with an inconclusive call do not appear. Active and inactive are the calls of the source. Calls follow the shape of the dose curve; as a rule, active = well fitted inhibition curve with a large enough effect in the signal ratio in the repeat runs; inconclusive = weak or mixed curves, or effect the other way; inactive = flat fitted curve, though single readings scatter; the % refers to the signal ratio.
Result category, one only: active, inactive

Reference set, count: 5
[
  {
    "chem-smiles": "C=C(C)C(=O)OCCOP(=O)(O)O",
    "assigned-label": "inactive"
  },
  {
    "chem-smiles": "Oc1ccccc1C=NCc1ccccc1",
    "assigned-label": "active"
  },
  {
    "chem-smiles": "COc1cc(C)ccc1C(C)C",
    "assigned-label": "inactive"
  },
  {
    "chem-smiles": "CCN(O)CC",
    "assigned-label": "inactive"
  },
  {
    "chem-smiles": "O=Cc1ccc(F)c(Br)c1",
    "assigned-label": "inactive"
  }
]

Short answer needed: outcome of this test for CCC(=O)O[C@]1(C(=O)SCF)[C@H](C)C[C@H]2[C@@H]3C[C@H](F)C4=CC(=O)C=C[C@]4(C)[C@@]3(F)[C@@H](O)C[C@@]21C ?
active

Do the same for Nc1ccc(Oc2ccc(N)c(N)c2)cc1 please
active

And what about the compound CC/C=C\CCOC(=O)CCCCC ?
inactive

Lookup CCOc1ccc(NS(=O)(=O)c2ccc(N)cc2)nn1
inactive
